B1: HDV Ribozyme (parent)
chain: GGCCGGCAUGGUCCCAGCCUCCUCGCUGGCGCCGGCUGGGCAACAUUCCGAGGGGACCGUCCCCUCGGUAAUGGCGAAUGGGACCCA

- Variants of: B1
- assay notes: self-cleavage, relative activity (ratio to wild type); higher = more cleavage; co-transcriptional
Give self-cleavage for every item shown.
Give the value as a plain number.

According to the records, this variant U37C A45C displays self-cleavage of 0.539

// self-cleavage lookup, variant = G35U G67U , result: 0.391

The variant listed as G17U G29C has a reported self-cleavage of 0.0773

Measured self-cleavage of U9A G25U : 0.175

Recorded self-cleavage (variant C30G G34A ): 0

What the record says about C24U U27A : self-cleavage is 0.399

// A45G U47A : self-cleavage value = 1.13

Measured self-cleavage of G80A A83G : 0.396

Lookup result for C41G A78U ; measured self-cleavage: 0.178

// G50U A56C : self-cleavage value = 1.18

The reported value for C49G C86A in terms of self-cleavage is 0.966

Lab note: measured self-cleavage of C36U C84U was 0.716

For G39C G50U the variant record lists self-cleavage as 0.345

The variant identified as G35C A78G registered its self-cleavage at 0.262

The reported self-cleavage of the variant U65C A70G was 0.705

Memo: G35A G67A , reported self-cleavage: 0.328

Recorded self-cleavage (variant C19G C61G ): 0.0378

The variant C41U A56U showed self-cleavage equal to 1.09

get_value(item= G5A G54U , readout=self-cleavage) returns 0.113

// field: self-cleavage; key: C22G C64G ; value = 0.0723

The measured self-cleavage associated with C18G G29A reads 0.217

self-cleavage for C18U C48A is 0.644

In plain terms, C32A G59U has a documented self-cleavage of 0.095

Looking up G28C C32G , I found its self-cleavage recorded as 0

According to the records, this variant C41A A56U displays self-cleavage of 0.89

Field self-cleavage (entry G11C G25C ) reads 0.0475

Measured self-cleavage, C18A C44U : 0.219

Input C14G C18G . Output self-cleavage: 0

Recorded self-cleavage (variant G6C C18G ): 0

U23G G34C has a reported self-cleavage of 0.0415

G17A C21A has a reported self-cleavage of 0.0297

For this variant ( G10A G55A ), measured self-cleavage is 0.831

# self-cleavage of U72A U79C = 0.248

Sure, the documented self-cleavage for G5A A45C is 0.0462

For C32U G55C the variant record lists self-cleavage as 0.866

// C24U C86A : self-cleavage value = 0.808

Just so you know, measured self-cleavage for U60C U79C came out at 0.326

The recorded self-cleavage for entry G38A G80U equals 0.156

Note to self: self-cleavage recorded for G17A C22G was 0.0573

Record U47C G82A . Reported self-cleavage: 0.401

Reported self-cleavage for A16C C48G was 0.437

Noted for U37G G50U : its self-cleavage reads 0.135

// sample G40A C44G , its self-cleavage was 0.302

Lab note: U9A G54U gave self-cleavage of 1.06

Input U37C A56U . Output self-cleavage: 1.09

get_value(item= G67C G82U , readout=self-cleavage) returns 0.185

Where do the numbers come from? From the RNAGym collection of RNA variant scans (doi:10.7554/elife.80360).
